meta.source: patent US20250387462A1

assay: Apparent solubility of phosphatidylserine salts in ethanol (shake flask); type: physicochemical; settings: 21 °C, organic solvent or mixture, thermodynamic from solid, 100% ethanol, room temperature, average±SD (N=3)
OBSERVED_PROPERTY: solubility at 24 h (mM)
Give the number; mM is assumed, so skip it.

Examples from the recorded data:
COMPOUND	OBSERVED_PROPERTY	QUANTITY_UNIT	EXPERIMENTAL_RESULT
CCCCCCCCCCCCCCCC(=O)OC[C@H](COP(=O)(O)OC[C@H](N)C(=O)O)OC(=O)CCCCCCCCCCCCCCC.N	solubility at 24 h	mM	0.865
CCCCCCCCCCCCCCCC(=O)OC[C@H](COP(=O)(O)OC[C@H](N)C(=O)[O-])OC(=O)CCCCCCCCCCCCCCC.[Na+] [DPPS sodium]	solubility at 24 h	mM	0.201
CCCCCCCCCCCCCCCCCC(=O)OC[C@H](COP(=O)(O)OC[C@H](N)C(=O)O)OC(=O)CCCCCCCCCCCCCCCCC.N	solubility at 24 h	mM	0.034

Could you now look at the following compound, please?
Req: Determine its reported solubility at 24 h: CCCCCCCCCCCCCCCCCC(=O)OC[C@H](COP(=O)(O)OC[C@H](N)C(=O)[O-])OC(=O)CCCCCCCCCCCCCCCCC.[Na+] [DSPS sodium]
Resp: 0.111
